Where do the numbers come from? From patent US6391656B2.

# TARGET OR SYSTEM: MRP (Homo sapiens, UniProt P33527)
# Construct: endogenous in cells
# Sequence (P33527 whole entry): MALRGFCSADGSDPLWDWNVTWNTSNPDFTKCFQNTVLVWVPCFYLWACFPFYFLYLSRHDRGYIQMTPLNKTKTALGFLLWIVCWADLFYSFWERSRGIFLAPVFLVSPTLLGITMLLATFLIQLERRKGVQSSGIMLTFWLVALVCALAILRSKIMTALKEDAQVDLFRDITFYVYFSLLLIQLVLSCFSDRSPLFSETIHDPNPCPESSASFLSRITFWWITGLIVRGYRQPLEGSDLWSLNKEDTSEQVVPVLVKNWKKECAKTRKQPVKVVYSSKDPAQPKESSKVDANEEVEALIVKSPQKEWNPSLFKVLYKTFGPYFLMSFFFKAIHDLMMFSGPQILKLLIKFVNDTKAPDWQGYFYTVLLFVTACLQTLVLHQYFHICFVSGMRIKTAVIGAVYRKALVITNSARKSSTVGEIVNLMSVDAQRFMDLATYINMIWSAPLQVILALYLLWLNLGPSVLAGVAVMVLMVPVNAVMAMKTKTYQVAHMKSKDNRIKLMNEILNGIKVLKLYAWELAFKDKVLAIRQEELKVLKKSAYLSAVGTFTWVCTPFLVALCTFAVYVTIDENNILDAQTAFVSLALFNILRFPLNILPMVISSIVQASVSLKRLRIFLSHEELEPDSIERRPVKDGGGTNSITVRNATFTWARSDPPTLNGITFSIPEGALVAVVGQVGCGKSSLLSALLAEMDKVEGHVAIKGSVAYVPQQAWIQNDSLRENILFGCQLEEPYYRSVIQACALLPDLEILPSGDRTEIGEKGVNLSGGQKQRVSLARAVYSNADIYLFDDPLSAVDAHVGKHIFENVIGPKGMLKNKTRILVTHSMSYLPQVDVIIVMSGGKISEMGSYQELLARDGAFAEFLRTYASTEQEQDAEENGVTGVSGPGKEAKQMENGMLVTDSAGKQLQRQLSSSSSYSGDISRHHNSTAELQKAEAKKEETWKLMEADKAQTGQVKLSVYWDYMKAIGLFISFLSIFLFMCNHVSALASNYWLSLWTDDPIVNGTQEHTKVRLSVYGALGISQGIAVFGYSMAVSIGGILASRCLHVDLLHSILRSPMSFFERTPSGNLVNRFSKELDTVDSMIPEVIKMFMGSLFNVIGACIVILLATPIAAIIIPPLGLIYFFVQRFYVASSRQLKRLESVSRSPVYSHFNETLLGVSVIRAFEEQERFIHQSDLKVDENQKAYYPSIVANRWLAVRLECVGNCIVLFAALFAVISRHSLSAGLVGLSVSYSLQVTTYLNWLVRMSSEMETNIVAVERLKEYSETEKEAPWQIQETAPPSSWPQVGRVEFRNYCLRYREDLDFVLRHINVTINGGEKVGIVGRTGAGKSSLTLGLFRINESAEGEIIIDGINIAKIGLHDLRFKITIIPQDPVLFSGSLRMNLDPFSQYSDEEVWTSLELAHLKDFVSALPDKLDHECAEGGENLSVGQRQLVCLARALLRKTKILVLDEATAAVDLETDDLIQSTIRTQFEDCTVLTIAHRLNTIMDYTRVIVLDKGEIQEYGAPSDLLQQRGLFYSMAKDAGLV
# ASSAY DETAILS: Inhibition of MRP-mediated calcein-AM extrusion (calcein accumulation) in S1MRP and HL60 ADR cells
# Type: cell-based
# EXPERIMENTAL PARAMETERS: inhibition of MRP-mediated calcein-AM extrusion; S1MRP and HL60 ADR cells; range of at least 3 independent experiments with each cell line; read-out: IC50 MRP
Below: a set of entries, each annotated with reported IC50.

[
  {
    "MOLECULE": "COc1ccc2c(c1)c(CC(=O)O)c(C)n2C(=O)c1ccc(Cl)cc1 [Indomethacin]",
    "IC50": "10 to 20 µM"
  }
]

Then there is this molecule:
Name the recorded IC50 for C=C[C@H]1C[N@@]2CC[C@H]1C[C@H]2[C@H](O)c1ccnc2ccc(OC)cc12 [Quinine] .
50 to 100 µM
